targetOfAssay: Mu opioid receptor (Homo sapiens, UniProt P35372)
Construct: expressed in transfected cells; host or cells: HEK-293
Sequence (P35372 whole entry): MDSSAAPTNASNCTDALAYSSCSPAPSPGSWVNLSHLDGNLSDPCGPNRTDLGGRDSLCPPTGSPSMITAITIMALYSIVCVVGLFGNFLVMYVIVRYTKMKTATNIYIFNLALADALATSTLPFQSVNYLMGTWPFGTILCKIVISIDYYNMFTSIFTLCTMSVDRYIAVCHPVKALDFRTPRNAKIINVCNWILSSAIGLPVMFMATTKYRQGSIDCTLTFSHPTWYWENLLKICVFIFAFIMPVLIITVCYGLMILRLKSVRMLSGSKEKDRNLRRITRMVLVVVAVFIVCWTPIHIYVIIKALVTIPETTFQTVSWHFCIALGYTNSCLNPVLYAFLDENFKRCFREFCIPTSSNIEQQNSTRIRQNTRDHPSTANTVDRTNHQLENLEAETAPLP
experimentDescription: Affinity for the Mu opioid receptor, [3H]diprenorphine radioligand binding
pKi: −log10 of the molar value. Where a name gives a salt, the structure may show the parent alone.
List of pKi values.

| compound | pKi |
| --- | --- |
| CC1CN(CC(Cc2ccccc2)(Cc2ccccc2)C(=O)O)CCC1(F)c1cccc(O)c1 (stereo not shown) [Example 15, Hydrochloride] | > 7.00 |
| Oc1cccc(C2(F)CCN(CCCC3CCCCC3)CC2)c1 [Example 11, Hydrochloride] | > 7.00 |
| CC1CN(CCOc2ccccc2)CCC1(F)c1cccc(O)c1 (stereo not shown) [Example 13, Hydrochloride] | > 7.00 |
| Cc1ccc(S(=O)(=O)Nc2cccc(C3(F)CCN(CCOc4ccccc4)CC3)c2)cc1 [Example 17, Hydrochloride] | 6.00 to 7.00 |
